test system: G. duodenalis BRIS/91/HEPU/1279; test: Primary Giardia screen at 10 µM (live-cell imaging, automated counting); format: cell-based, Giardia duodenalis; settings: 48 h, first singlicate assay
readoutName: % Inhibition n=1 48h (%)

# molecule, testSystem, observed
rows = [
    ("Nc1nc(N2CCN(C(=O)c3ccco3)CC2)ncc1C(=O)Nc1ccccc1", "G. duodenalis BRIS/91/HEPU/1279", 0.0),
    ("CCn1c(=O)c(N2CCCC(C(=O)NCCc3c[nH]c4ccccc34)C2)nc2ccccc21 (stereo not drawn)", "G. duodenalis BRIS/91/HEPU/1279", 9.8),
    ("CCCn1ccc2sc(C)c(C(=O)NC3CCCCC3)c2c1=O", "G. duodenalis BRIS/91/HEPU/1279", 16.0),
    ("Cc1cc(C)n2nc(C(=O)N3CCCC(n4cncn4)C3)nc2n1 (stereo not drawn)", "G. duodenalis BRIS/91/HEPU/1279", 8.1),
    ("CCS(=O)(=O)c1ncc(N(Cc2ccco2)Cc2ccccc2F)c(C(=O)Nc2ccccc2)n1", "G. duodenalis BRIS/91/HEPU/1279", 17.4),
    ("COc1cccc(-c2noc(-c3cc(N4CCN(C(C)=O)CC4)nc4ccccc34)n2)c1OC", "G. duodenalis BRIS/91/HEPU/1279", 7.7),
    ("CCOC(=O)c1ccccc1NC(=O)N1Cc2c(sc3c2CCN(C)C3)-n2cccc2C1CC (stereo not drawn)", "G. duodenalis BRIS/91/HEPU/1279", 10.1),
    ("O=C(NC1CCN(c2cc(-c3cccs3)n[nH]2)C1)c1ccc2[nH]cnc2c1 (stereo not drawn)", "G. duodenalis BRIS/91/HEPU/1279", 29.6),
    ("O=C1C2C(c3ccc(F)cc3)NC(Cc3ccccc3)(C(=O)O)C2C(=O)N1c1ccc(F)cc1 (stereo not drawn)", "G. duodenalis BRIS/91/HEPU/1279", 0.7),
    ("COc1ccc(CCNC(=O)c2cc(-c3cccs3)on2)cc1OC", "G. duodenalis BRIS/91/HEPU/1279", 33.2),
    ("CCCN1C(=O)c2c(C(=O)NCCc3ccccc3)ncn2CC1(C)C(=O)NCCC(C)C (stereo not drawn)", "G. duodenalis BRIS/91/HEPU/1279", 9.0),
    ("COc1cc2ccccc2cc1C(=O)Nc1nc2c(s1)CN(Cc1ccccc1)CC2", "G. duodenalis BRIS/91/HEPU/1279", 9.9),
    ("COc1ccc(-c2nnc(CN3C(=O)NC(C)(CCC(C)C)C3=O)o2)cc1 (stereo not drawn)", "G. duodenalis BRIS/91/HEPU/1279", 0.0),
    ("Cc1ccc(-c2nnc(-c3cccnc3N3CCCC3)o2)cc1", "G. duodenalis BRIS/91/HEPU/1279", 0.0),
    ("Fc1cccc(Nc2c3c(nc4ccccc24)CCC3)c1", "G. duodenalis BRIS/91/HEPU/1279", 66.2),
    ("COC(=O)C(C)n1cnc2c(nnn2Cc2ccccc2F)c1=O (stereo not drawn)", "G. duodenalis BRIS/91/HEPU/1279", 11.4),
    ("O=C(CC1COc2ccccc2N1Cc1ccccc1)N1CCc2ccccc2C1 (stereo not drawn)", "G. duodenalis BRIS/91/HEPU/1279", 0.0),
    ("Cc1sc(=O)n(CCC(=O)N2CCC(C)CC2c2ccco2)c1C (stereo not drawn)", "G. duodenalis BRIS/91/HEPU/1279", 0.0),
    ("O=C1CC(c2noc(-c3ccc(F)cc3)n2)CN1c1ccc(F)cc1 (stereo not drawn)", "G. duodenalis BRIS/91/HEPU/1279", 9.0),
    ("Cn1cc2c(n1)c(=O)n(Cc1ccccc1)c(=O)n2CC(=O)Nc1cccc(F)c1", "G. duodenalis BRIS/91/HEPU/1279", 46.9),
    ("C1CNCC2CCCN2C1 (stereo not drawn)", "G. duodenalis BRIS/91/HEPU/1279", 3.1),
    ("CC(C)Cn1nc(C(=O)N2CCCCC2c2nc3ccccc3s2)c2ccccc2c1=O (stereo not drawn)", "G. duodenalis BRIS/91/HEPU/1279", 2.8),
    ("O=C(c1cccc(Br)c1)N1CCc2nc(-c3ccc(F)cc3)ncc2C1", "G. duodenalis BRIS/91/HEPU/1279", 13.8),
    ("CN(C)CC1CN(S(=O)(=O)C2CC2)CC12CCOCC2 (stereo not drawn)", "G. duodenalis BRIS/91/HEPU/1279", 16.1),
    ("CCc1nn(CC)c(=O)c2cc(S(=O)(=O)N3CCOCC3)cn12", "G. duodenalis BRIS/91/HEPU/1279", 11.8),
    ("COc1ccccc1CNC(=O)CCN1C(=O)c2ccccc2C1=O", "G. duodenalis BRIS/91/HEPU/1279", 30.7),
    ("CS(=O)(=O)N1CCCC1C(=O)OCc1cc(=O)n2c3c(sc2n1)CCCC3 (stereo not drawn)", "G. duodenalis BRIS/91/HEPU/1279", 10.4),
    ("COc1ccccc1C(=O)n1ccn(S(=O)(=O)c2ccc(C)cc2)c1=O", "G. duodenalis BRIS/91/HEPU/1279", 6.3),
    ("Cc1cc(C)cc(C(=O)NCc2ccc3c(c2)nnn3C)c1", "G. duodenalis BRIS/91/HEPU/1279", 0.0),
    ("C[C@@]1(O)CCN(C(=O)c2cccc(F)c2)C[C@H]1N1CCCC1 (relative stereo)", "G. duodenalis BRIS/91/HEPU/1279", 0.0),
    ("CCN1CCN(c2ccc3nnc(C(C)C)n3n2)CC1", "G. duodenalis BRIS/91/HEPU/1279", 0.4),
    ("CN1C(=O)c2cc(NC(=O)c3ccc4c(c3)OCO4)ccc2N2CCN=C12", "G. duodenalis BRIS/91/HEPU/1279", 31.6),
    ("Cn1ncc2c(N3CCCN(C4CC4)CC3)ncnc21", "G. duodenalis BRIS/91/HEPU/1279", 9.8),
]

---

Measured % Inhibition n=1 48h by item
test system: G. duodenalis BRIS/91/HEPU/1279; assay: Primary Giardia screen at 10 µM (live-cell imaging, automated counting); format: cell-based, Giardia duodenalis; conditions: 48 h, first singlicate assay

# compound, % Inhibition n=1 48h / %
measured = [
    ("Cc1ccccc1C(=O)Nc1cnc(N2CCNCC2)c(C(=O)N(C)Cc2ccccc2)c1", 15.2),
    ("O=C(NCc1ccccc1)c1nc[nH]c1C(=O)NCc1cccc(C(F)(F)F)c1", 20.4),
    ("COc1ccc(NC(=O)c2cc(C(F)(F)F)n(C)n2)cc1", 0.0),
    ("CCOC(=O)c1ccccc1NC(=O)NC(c1ccccc1)c1nnc(-c2ccccc2)o1 (centres unmarked)", 0.0),
    ("O=C(Nc1cnn(Cc2cn3ccccc3n2)c1)Nc1ccc(F)cc1F", 7.2),
    ("O=C(NCCC1=CCCCC1)c1cccn1-c1cccnc1", 14.0),
    ("O=C(Cc1cccs1)Nc1ccc(N2CCN(c3ccccc3F)CC2)cc1C(=O)O", 0.0),
    ("O=C(Nc1ccc(Br)cc1)c1ccc(F)c(S(=O)(=O)NCCc2ccccc2)c1", 3.9),
]

---

test system: G. duodenalis BRIS/91/HEPU/1279; test: Primary Giardia screen at 10 µM (live-cell imaging, automated counting); type: cell-based, Giardia duodenalis; conditions: 48 h, first singlicate assay

# molecule, testSystem, % Inhibition n=1 48h
rows = [
    ("O=c1ccccn1Cc1nnc(-c2ccc(Br)o2)o1", "G. duodenalis BRIS/91/HEPU/1279", "8.9%"),
    ("O=[N+]([O-])c1ncn(Cc2nc(-c3ccc(C(F)(F)F)cc3)no2)n1", "G. duodenalis BRIS/91/HEPU/1279", "16.5%"),
    ("CCCn1c(C2CCN(C(=O)Nc3ccc(F)cc3)CC2)cc(=O)n2nccc12", "G. duodenalis BRIS/91/HEPU/1279", "19.1%"),
    ("CC1(C(=O)NC2CCCCCCC2)CN(S(C)(=O)=O)CC(=O)N1c1ccc(F)cc1 (centres unmarked)", "G. duodenalis BRIS/91/HEPU/1279", "11.9%"),
    ("CC(C)(C)C(=O)N1CCC(C(=O)N2CC=C(c3ccc(F)cc3)CC2)CC1", "G. duodenalis BRIS/91/HEPU/1279", "0.0%"),
]

---

Measured % Inhibition n=1 48h by item
test system: G. duodenalis BRIS/91/HEPU/1279; assay: Primary Giardia screen at 10 µM (live-cell imaging, automated counting); type: cell-based, Giardia duodenalis; conditions: 48 h, first singlicate assay

# compound, scaleUnit, % Inhibition n=1 48h
rows = [
    ("CCc1ncc2c(n1)CN(Cc1csc(-c3ncccn3)n1)CC2", "%", 9.1),
    ("CSCCC(NS(=O)(=O)c1ccc(C)cc1)C(=O)Nc1nc(C)c(-c2ccccn2)s1 (stereo not drawn)", "%", 0.0),
    ("O=[N+]([O-])c1cccc(S(=O)(=O)N2CCCCCC2c2cccs2)c1 (stereo not drawn)", "%", 25.8),
]
